molecular target: PDGF-R (Homo sapiens); assay: PDGF-R ELISA; type: cell-based
Sequence (P09619 33-1106, species assumed): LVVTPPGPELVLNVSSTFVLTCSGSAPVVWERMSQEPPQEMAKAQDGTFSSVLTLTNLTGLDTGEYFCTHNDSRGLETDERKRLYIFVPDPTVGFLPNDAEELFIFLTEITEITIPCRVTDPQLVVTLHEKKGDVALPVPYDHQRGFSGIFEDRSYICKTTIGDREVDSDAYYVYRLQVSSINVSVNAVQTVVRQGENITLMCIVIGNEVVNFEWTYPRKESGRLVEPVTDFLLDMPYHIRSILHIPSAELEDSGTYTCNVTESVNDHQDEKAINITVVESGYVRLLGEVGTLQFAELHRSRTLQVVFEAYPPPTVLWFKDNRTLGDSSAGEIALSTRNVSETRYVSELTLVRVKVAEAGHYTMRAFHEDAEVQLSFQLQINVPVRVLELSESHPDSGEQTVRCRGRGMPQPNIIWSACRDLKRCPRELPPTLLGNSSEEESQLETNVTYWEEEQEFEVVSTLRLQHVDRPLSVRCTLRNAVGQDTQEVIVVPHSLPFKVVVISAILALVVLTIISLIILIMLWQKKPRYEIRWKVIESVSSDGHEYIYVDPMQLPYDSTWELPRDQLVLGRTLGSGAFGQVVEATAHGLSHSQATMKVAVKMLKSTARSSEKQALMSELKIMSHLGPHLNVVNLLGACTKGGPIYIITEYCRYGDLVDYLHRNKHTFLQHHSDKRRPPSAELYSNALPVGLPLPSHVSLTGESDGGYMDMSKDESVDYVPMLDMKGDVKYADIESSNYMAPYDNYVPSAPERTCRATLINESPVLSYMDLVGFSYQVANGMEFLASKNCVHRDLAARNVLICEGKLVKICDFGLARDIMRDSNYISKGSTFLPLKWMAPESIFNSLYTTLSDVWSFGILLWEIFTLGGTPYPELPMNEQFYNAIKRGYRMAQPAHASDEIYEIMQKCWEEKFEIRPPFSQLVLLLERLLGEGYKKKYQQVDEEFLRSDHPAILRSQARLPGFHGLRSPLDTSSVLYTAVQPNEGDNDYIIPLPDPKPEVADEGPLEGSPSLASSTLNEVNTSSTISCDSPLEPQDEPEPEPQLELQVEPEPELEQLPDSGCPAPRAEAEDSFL
Recorded PDGF Kinase %Inhibition, one value per entry.

[
  {
    "Record smiles": "O=C1Nc2ccc(S(=O)(=O)N3CCOCC3)cc2C1=Cc1ccccc1Sc1ccc(Cl)cc1",
    "PDGF Kinase %Inhibition": "-3.7%"
  },
  {
    "Record smiles": "O=C1Nc2ccc(S(=O)(=O)Nc3ccc(C(F)(F)F)cc3)cc2C1=Cc1cc2c(cc1Cl)OCO2",
    "PDGF Kinase %Inhibition": "9.4%"
  },
  {
    "Record smiles": "O=C1Nc2ccc(I)cc2C1=Cc1ccc(F)cc1F",
    "PDGF Kinase %Inhibition": "21.5%"
  },
  {
    "Record smiles": "O=C1Nc2c(Br)cc(Br)cc2C1=Cc1cccn1-c1ccc(Cl)cc1",
    "PDGF Kinase %Inhibition": "19.6%"
  },
  {
    "Record smiles": "O=C1Nc2ccc(CCCl)cc2C1=Cc1ccc(Br)o1",
    "PDGF Kinase %Inhibition": "6.2%"
  },
  {
    "Record smiles": "CC(C)(C)c1ccc(C=C2C(=O)Nc3ccc(S(=O)(=O)Nc4ccc(C(F)(F)F)cc4)cc32)cc1",
    "PDGF Kinase %Inhibition": "29.8%"
  },
  {
    "Record smiles": "CCN(CC)c1ccc(C=C2C(=O)Nc3ccc(I)cc32)cc1",
    "PDGF Kinase %Inhibition": "-10.3%"
  },
  {
    "Record smiles": "CNS(=O)(=O)c1ccc2c(c1)C(=Cc1cc(OC)ccc1OC)C(=O)N2",
    "PDGF Kinase %Inhibition": "9.8%"
  },
  {
    "Record smiles": "COc1cc(C=C2C(=O)Nc3ccc(CCCl)cc32)cc(OC)c1OC",
    "PDGF Kinase %Inhibition": "21.6%"
  },
  {
    "Record smiles": "CNS(=O)(=O)c1ccc2c(c1)C(=Cc1cc(OC)c3c(c1)OCO3)C(=O)N2",
    "PDGF Kinase %Inhibition": "-10.2%"
  },
  {
    "Record smiles": "CCN(CC)c1ccc(C=C2C(=O)Nc3ccc(S(=O)(=O)N4CCOCC4)cc32)cc1",
    "PDGF Kinase %Inhibition": "11.5%"
  },
  {
    "Record smiles": "O=C1Nc2ccc(S(=O)(=O)Nc3ccc(C(F)(F)F)cc3)cc2C1=Cc1cc(Cl)cc(Br)c1O",
    "PDGF Kinase %Inhibition": "-7.4%"
  },
  {
    "Record smiles": "Cc1c(Br)ccc2c1C(=Cc1ccc3c(c1)Cc1ccccc1-3)C(=O)N2",
    "PDGF Kinase %Inhibition": "2.7%"
  },
  {
    "Record smiles": "COc1c(Br)cc(C=C2C(=O)Nc3ccc(S(=O)(=O)Nc4ccc(C(F)(F)F)cc4)cc32)cc1C(C)(C)C",
    "PDGF Kinase %Inhibition": "42.2%"
  },
  {
    "Record smiles": "Cc1c(Br)ccc2c1C(=Cc1cc(Cl)cc(Cl)c1O)C(=O)N2",
    "PDGF Kinase %Inhibition": "24.5%"
  },
  {
    "Record smiles": "CCc1cc(CC)c(C=C2C(=O)Nc3ccc(CCCl)cc32)[nH]1",
    "PDGF Kinase %Inhibition": "-10.3%"
  },
  {
    "Record smiles": "O=C1Nc2ccc(I)cc2C1=Cc1cc(O)ccc1O",
    "PDGF Kinase %Inhibition": "29.7%"
  },
  {
    "Record smiles": "O=C1Nc2c(Br)cc(Br)cc2C1=Cc1ccc(O)c(Br)c1",
    "PDGF Kinase %Inhibition": "-9.5%"
  }
]
